Source of measurements: patent US20030032579A1

target: PDE9 (Homo sapiens, UniProt O76083)
Sequence (O76083 whole entry): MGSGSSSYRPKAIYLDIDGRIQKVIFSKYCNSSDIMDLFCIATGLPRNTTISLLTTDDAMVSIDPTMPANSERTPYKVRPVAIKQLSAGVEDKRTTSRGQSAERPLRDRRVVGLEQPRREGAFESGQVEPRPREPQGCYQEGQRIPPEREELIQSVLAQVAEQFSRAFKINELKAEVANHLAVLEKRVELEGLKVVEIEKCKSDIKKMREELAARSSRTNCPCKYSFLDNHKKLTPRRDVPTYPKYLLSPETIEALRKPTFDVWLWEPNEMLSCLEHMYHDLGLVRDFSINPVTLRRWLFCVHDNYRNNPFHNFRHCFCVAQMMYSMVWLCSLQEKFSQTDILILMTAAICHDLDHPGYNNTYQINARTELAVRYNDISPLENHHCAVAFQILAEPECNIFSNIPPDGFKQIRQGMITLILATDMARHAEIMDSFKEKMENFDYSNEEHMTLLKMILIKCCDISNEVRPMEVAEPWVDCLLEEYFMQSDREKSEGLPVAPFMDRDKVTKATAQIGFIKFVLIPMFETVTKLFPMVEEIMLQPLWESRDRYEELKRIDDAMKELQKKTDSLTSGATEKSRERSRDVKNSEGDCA
Measured Metric: pIC50
Scale note: pIC50 = -log10(concentration in M).

# input Name the recorded pIC50 for "COc1ccc(Cc2nccc3cc(OC)c(OC)cc23)cc1OC" .
# output 3.40

###

system: PDE1; construct: other: substrate at 1/3 Km; assay: PDE inhibition, SPA cyclic nucleotide hydrolysis assay; assay type: biochemical, human; details: substrate at 1/3 Km
Measured Metric: pIC50
Scale note: pIC50 = -log10(concentration in M).

# input Name the recorded pIC50 for COc1ccc(Cc2nccc3cc(OC)c(OC)cc23)cc1OC [Papaverine] .
# output 4.43

###

biological target: PDE10 (Rattus norvegicus)
Sequence (Q9QYJ6 whole entry): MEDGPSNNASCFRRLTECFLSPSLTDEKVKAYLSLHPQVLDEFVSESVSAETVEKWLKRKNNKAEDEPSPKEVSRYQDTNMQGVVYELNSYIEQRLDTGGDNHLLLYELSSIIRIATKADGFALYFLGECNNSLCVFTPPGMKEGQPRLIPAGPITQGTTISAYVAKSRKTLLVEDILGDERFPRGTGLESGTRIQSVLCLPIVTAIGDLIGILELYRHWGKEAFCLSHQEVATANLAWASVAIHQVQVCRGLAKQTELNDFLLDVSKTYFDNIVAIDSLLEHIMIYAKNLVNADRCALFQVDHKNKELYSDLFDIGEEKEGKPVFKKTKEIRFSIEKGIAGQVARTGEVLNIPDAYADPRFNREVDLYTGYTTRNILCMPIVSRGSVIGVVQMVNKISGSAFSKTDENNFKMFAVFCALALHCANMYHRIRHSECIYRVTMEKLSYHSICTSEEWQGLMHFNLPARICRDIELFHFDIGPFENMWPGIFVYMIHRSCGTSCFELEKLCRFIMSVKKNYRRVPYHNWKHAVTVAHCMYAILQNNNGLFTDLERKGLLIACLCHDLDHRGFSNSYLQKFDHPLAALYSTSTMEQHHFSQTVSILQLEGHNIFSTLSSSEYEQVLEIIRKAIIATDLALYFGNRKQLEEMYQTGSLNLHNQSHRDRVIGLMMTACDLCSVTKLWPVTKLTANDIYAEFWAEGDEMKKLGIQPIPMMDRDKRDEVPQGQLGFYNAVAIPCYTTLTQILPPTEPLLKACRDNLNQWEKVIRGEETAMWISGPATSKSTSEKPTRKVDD
Measured Metric: IC50 (nM)
Output spec: scalar in nM, unitless text.

# input Name the recorded IC50 for COc1ccc(Cc2nccc3cc(OC)c(OC)cc23)cc1OC [Papaverine] .
# output 18
